Assay: Pharmacokinetic profile in mice after I.V. injection (LC-MS/MS of plasma, brain, liver, kidney)
Type: in vivo, mouse
Settings: male, C57BL/6, mouse, iv; plasma, 10 mg/kg I.V.
METRIC_NAME: half-life (h)
Just the number please, in h, no unit attached.

Prompt line: Given the entry "COc1cc(CC(=O)Nc2cc(C3CCC3)[nH]n2)cc(OC)c1OC" , report its measured half-life.
Response line: 6.5

----------
Assay: Pharmacokinetic profile in mice after I.V. injection (LC-MS/MS of plasma, brain, liver, kidney)
Format: in vivo, mouse
Details: male, C57BL/6, mouse, iv; brain, 50 mg/kg I.V.
METRIC_NAME: half-life (h)
Just the number please, in h, no unit attached.

Prompt line: Given the entry "COc1cc(CC(=O)Nc2cc(C3CCC3)[nH]n2)cc(OC)c1OC" , report its measured half-life.
Response line: 6.23
